# measurement description: NCI Yeast Anticancer Drug Screen. Data for the rad50 strain (AID 155);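 note: 0% = growth of vehicle-only cultures of the same strain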
# experimental context: S. cerevisiae rad50 strain growth inhibition; at 50.0 µM (retest, dose inferred, filed as 5.0); active compounds read high
About 79,000 compounds went through this panel and 15% of them were active in at least one assay; those are over-represented in the sample as a whole.
Parameter threshold = 60%. Response is TRUE when growth inhibition meets or exceeds it, else FALSE.

Record excerpt, results attached:
O=NN(CCCl)C(=O)Oc1cc(Cl)c(Cl)cc1Cl    TRUE
C#CC(NCCC(C)CC(C)(C)C)C(C)C (stereo unspecified)    FALSE
CN(C)C(=O)SC1=C(c2c(Cl)cccc2Cl)C(=O)c2ccccc21    TRUE
CCCCN(CCCC)CCC(O)(c1ccc(OC)c2ccccc12)C(O)(CCN(CCCC)CCCC)c1ccc(OC)c2ccccc12 (stereo unspecified)    TRUE
O=C1c2ccccc2-c2ccccc2C(=O)C1(Br)Br    FALSE

Prompt: # check: growth inhibition of Cc1cc(=O)oc2c(C)c3oc(CBr)cc3cc12 is greater than or equal to 60%
Completion: TRUE

Prompt: # check: growth inhibition of O=C1CCC(=O)c2c1c(O)c1ccncc1c2O is greater than or equal to 60%
Completion: TRUE

---

# measurement description: NCI Yeast Anticancer Drug Screen. Data for the mec2-1 strain (AID 157)
# experimental context: S. cerevisiae mec2-1 strain, at 5.0 µM (retest, dose inferred, filed as 0.5), active compounds read high
Compounds without any hit were thinned out: in the full panel of roughly 79,000, 15% have a hit.
Known growth inhibition of a selection of compounds
Respond numerically; units are % and should not be typed.

O=[N+]([O-])OC1CCCC(O[N+](=O)[O-])c2c1n([O-])c1ccccc1[n+]2=O (stereo not given)    40

Prompt: Entry C/C=C(\C)C(=O)OC1C(C)C2(O)C(C=C(CO)CC3(O)C(=O)C(C)=CC32)C2C(C)(C)C12OC(=O)CCCCCCCCC (stereo not given) : reported growth inhibition = ?
Completion: -3

Prompt: Entry C=Cc1ccc(B2NCCO2)cc1 : reported growth inhibition = ?
Completion: 7

Prompt: Entry O=S(=O)(O)SCCNCCCCCC1CCCCC1 : reported growth inhibition = ?
Completion: 27

---

# measurement description: NCI Yeast Anticancer Drug Screen. Data for the rad50 strain (AID 155);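 note: 0% = growth of vehicle-only cultures of the same strain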
# experimental context: S. cerevisiae rad50 strain growth inhibition; at 5.0 µM (retest, dose inferred, filed as 0.5)
This is part of a sample that, as a whole, favours compounds with a hit. Of some 79,000 tested, about 15% had one in any assay. Calls of active or inactive are those of the source. Rule as the data show it: active = growth inhibition above about 70%; inactive = the rest.
Reply using exactly one outcome from active, inactive

CCOCCC(=O)NNc1ccccc1    inactive
CC(=O)OC1CCC2(C)C3CCC4(C)C(C(C)CCCC(C)C)CCC4C3CCC23OC13C (stereo not drawn)    inactive

Prompt: Field: outcome | Entry: O=C(CNC(=O)c1ccccc1)NNc1ccccc1
Completion: inactive

Prompt: Field: outcome | Entry: Cc1nc2c(=O)[nH]c3ccc(Cl)cc3c2o1
Completion: inactive

Prompt: Field: outcome | Entry: CC(C)C(=O)OCC(C)(C)C1OCC(C)(C)C(C(C)C)O1 (stereo not drawn)
Completion: inactive

Prompt: Field: outcome | Entry: CN(C)c1ccc(C2C=C(c3ccccc3)Oc3ccccc32)cc1 (stereo not drawn)
Completion: active

Prompt: Field: outcome | Entry: N=C(N)c1ccc2oc3ccc(C(=N)N)cc3c(=O)c2c1
Completion: inactive

Prompt: Field: outcome | Entry: COc1cc(C(=O)NC(CCC(=O)O)C(=O)O)ccc1N(C)Cc1cnc2nc(N)nc(N)c2n1 (stereo not drawn)
Completion: inactive

Prompt: Field: outcome | Entry: CCC(=O)/C(=C\I)c1ccccc1
Completion: inactive

Prompt: Field: outcome | Entry: Cc1cc2c(cc1C)[n+](=O)c(C(=O)C/C(=N/NC(=O)CC#N)C(=O)Nc1ccccc1C(F)(F)F)c(C)n2[O-]
Completion: inactive

Prompt: Field: outcome | Entry: O=C1C=CC(=O)c2c1oc1ccccc21
Completion: inactive

Prompt: Field: outcome | Entry: O=C1CCC/C(c2ccccc2)=N\N=C/1c1ccccc1
Completion: inactive

---

# measurement description: NCI Yeast Anticancer Drug Screen. Data for the cln2 rad14 strain (AID 165);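 note: 0% = growth equal to vehicle treated cultures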
# experimental context: S. cerevisiae cln2 rad14 strain, at 50.0 µM
Compounds without any hit were thinned out: in the full panel of roughly 79,000, 15% have a hit. The source made the active and inactive calls. Rule as the data show it: active = growth inhibition above about 70%; inactive = the rest.
Reply using exactly one outcome from active, inactive

CC(=O)Nc1ccc2c(c1)[nH]c(=O)c1cc(Cl)ccc12    inactive
CC(C)Cc1ncc(CC(C)C)n(O)c1=O    active
N#C/C(=C\c1c(Cl)cccc1Cl)c1ccccc1    inactive

Prompt: Field: outcome | Entry: Cc1ccc2c(c1)CC1(C2)Cc2ccc(C)cc2C1=O (stereo unspecified)
Completion: inactive

Prompt: Field: outcome | Entry: O=C1C=CC(=O)N1C1c2ccccc2-c2ccccc21
Completion: active

Prompt: Field: outcome | Entry: Cc1ccc(O)c2c(NCCCCCCNc3cc(C)[n+](C)c4c(C)ccc(O)c34)cc(C)[n+](C)c12
Completion: active

Prompt: Field: outcome | Entry: Cc1ccc(N2C(=O)C(C)SC23C(=O)Nc2ccc(Cl)cc23)cc1 (stereo unspecified)
Completion: active

Prompt: Field: outcome | Entry: O=[N+]([O-])c1ccc(C2=CSc3ccccc3N2)cc1
Completion: inactive

Prompt: Field: outcome | Entry: NC(N)=N/N=C/c1ccc([N+](=O)[O-])o1
Completion: inactive

Prompt: Field: outcome | Entry: Oc1c(Cl)cc(Cl)c2cccnc12
Completion: active

Prompt: Field: outcome | Entry: CCOc1ccc(-c2nc3ccc(-c4nc5ccc(N6CCN(C)CC6)cc5[nH]4)cc3[nH]2)cc1
Completion: active

---

# measurement description: NCI Yeast Anticancer Drug Screen. Data for the rad50 strain (AID 155);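 note: 0% = growth of vehicle-only cultures of the same strain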
# experimental context: S. cerevisiae rad50 strain growth inhibition; at 5.0 µM (retest, dose inferred, filed as 0.5); active compounds read high
Compounds without any hit were thinned out: in the full panel of roughly 79,000, 15% have a hit. Calls of active or inactive are those of the source. No stated cut-off is given here; in the data, active means growth inhibition above about 70%; inactive means the rest.
outcome measure: growth inhibition

Completed entries (count: 3):
O=c1[nH]c2c([N+](=O)[O-])cc(Cl)cc2nc1/C=C(\O)c1ccccc1    17% (inactive)
NNc1cc([N+](=O)[O-])ccc1Cl    5% (inactive)
COc1cc(/C=C(\C#N)c2ccc([N+](=O)[O-])cc2)ccc1O    -13% (inactive)

Prompt: Entry COc1ccc(N=N/N=c2\sc3cc(OC)ccc3n2C)cc1 : reported growth inhibition = ?
Completion: 7% (inactive)

Prompt: Entry O=C(Nc1ccccc1F)C(Br)C(Br)c1ccccc1 (configuration not stated) : reported growth inhibition = ?
Completion: 6% (inactive)

Prompt: Entry O=S1(=O)CC(Cl)(Cl)C1 : reported growth inhibition = ?
Completion: 3% (inactive)

Prompt: Entry CCCCn1cnc2c(SCc3ccc(F)cc3)nc(N)nc21 : reported growth inhibition = ?
Completion: -1% (inactive)

---

# measurement description: NCI Yeast Anticancer Drug Screen. Data for the mec2-1 strain (AID 157)
# experimental context: S. cerevisiae mec2-1 strain, at 5.0 µM (retest, dose inferred, filed as 0.5), active compounds read high
The panel holds about 79,000 compounds, 15% with a hit somewhere; the sample as a whole holds those more often.
outcome measure: growth inhibition (%)
Respond numerically; units are % and should not be typed.

Completed entries (count: 5):
COCC1C(=O)c2cc3c(cc2C12C=CC1(C=C2)OCCO1)OCO3 (stereo unspecified)    15
CC(C)/C=N/N(CCOC(=O)Nc1ccccc1)C(=O)Nc1ccccc1    -6
CCCCCCCCCCCCCC(=O)N1CCOCC1    -3
O=Cc1ccc(O)c2ccccc12    1
CC(C(=O)O)c1cn(Cc2ccccc2)c2ccccc12 (stereo unspecified)    6

Prompt: Entry CCCCCCCCCC(=O)NN=C(C)C : reported growth inhibition = ?
Completion: -49

Prompt: Entry CC(=O)Nc1ccc(C(=O)n2[nH]c(C)c(/C=C3\C(=O)C=Cc4ccccc43)c2=O)cc1 : reported growth inhibition = ?
Completion: 19

Prompt: Entry O=C1NC(c2cccc3ccccc23)Nc2ccc(Cl)cc21 (stereo unspecified) : reported growth inhibition = ?
Completion: 10

Prompt: Entry O=C1C2(Cl)C(Cl)=C(Cl)C1(Cl)C1(Cl)C(Cl)=C(Cl)C(=O)C21Cl (stereo unspecified) : reported growth inhibition = ?
Completion: 45

Prompt: Entry CC(C)=Cc1cc2c(cc1O)CCC1C2CC[C@@]2(C)C1CC[C@@H]2O (stereo partly specified) : reported growth inhibition = ?
Completion: -5

Prompt: Entry O=[N+]([O-])c1ccc2c(c1)Cc1cc(O)c(I)cc1-2 : reported growth inhibition = ?
Completion: 13

---

# measurement description: NCI Yeast Anticancer Drug Screen. Data for the sgs1 mgt1 strain (AID 161);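 note: 0% = growth of cultures given vehicle only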
# experimental context: S. cerevisiae sgs1 mgt1 strain, at 50.0 µM, active compounds read high
Compounds without any hit were thinned out: in the full panel of roughly 79,000, 15% have a hit.
outcome measure: growth inhibition (%)
Respond numerically; units are % and should not be typed.

OCC(CO)C1c2cccc3ccc4cccc1c4c23    85.7
O=C(Nc1ccc(S(=O)(=O)NC2CCCCC2)cc1)OCc1ccccc1    73
CCC(CCCN(CC)CCc1ccccc1)OC(=O)c1cc(OC)c(OC)c(OC)c1 (configuration not stated)    37.8
Cc1c2ccccc2c(C)c2c1ccc1ccccc12    97.7

Prompt: Entry Cn1c(N)c(NC(=O)CCl)c(=O)n(C)c1=O : reported growth inhibition = ?
Completion: -16.9

Prompt: Entry CCCCC(CC)(CCC)CCN (configuration not stated) : reported growth inhibition = ?
Completion: 16.6

Prompt: Entry CNC(=O)OC(C)CN1c2ccccc2Sc2ccc(Cl)cc21 (configuration not stated) : reported growth inhibition = ?
Completion: 90.9

Prompt: Entry N#Cc1ccc([N+](=O)[O-])o1 : reported growth inhibition = ?
Completion: 96.2

Prompt: Entry COc1cc2c(ccc3cc4cccc[n+]4cc32)c(Br)c1OC : reported growth inhibition = ?
Completion: 73.2

Prompt: Entry O=C(CNC(=O)C(CSCc1ccccc1)NC(=O)OCc1ccccc1)Oc1c(Cl)c(Cl)c(Cl)c(Cl)c1Cl (configuration not stated) : reported growth inhibition = ?
Completion: 68.8

Prompt: Entry CCOc1ccc2c(c1)[n+]([O-])c(-c1ccc(Cl)cc1)c(N)[n+]2[O-] : reported growth inhibition = ?
Completion: 99.3

Prompt: Entry O=C(Oc1cccc2cccnc12)c1ccccc1 : reported growth inhibition = ?
Completion: 93.6
